Origin of values: ChEMBL document CHEMBL4689842

# Test system: Fibroblast
# assay.notes: Multiplex assay against human fibroblast
# Format: toxicity, cell-based
# run.conditions: 24 h, 1 µM, compound concentration 1 uM, replicate 1
Let's look at some molecules and their measured Total Cell Count.
When you answer, write just the number.

Field: example entries. Status: answers known.
>  <molecule>
CCn1c(=O)c(-c2ccc(-c3cncs3)cc2Cl)cc2cnc(Nc3ccc(N4CCN(C)CC4)cc3)nc21

>  <tested.on>
Fibroblast

>  <Total Cell Count>
111

$$$$
>  <molecule>
COc1cc2ncnc(Nc3ccc(F)c(Cl)c3)c2cc1NC(=O)/C=C/CN1CCCCC1 [DACOMITINIB ANHYDROUS]

>  <tested.on>
Fibroblast

>  <Total Cell Count>
210

$$$$
>  <molecule>
CCNc1cc(N[C@H]2CC[C@H](O)CC2)nc(Nc2ccc3c(ccn3Cc3ccccc3)c2)n1

>  <tested.on>
Fibroblast

>  <Total Cell Count>
313

$$$$
>  <molecule>
CCOc1cc2ncc(C#N)c(Nc3ccc(OCc4ccccn4)c(Cl)c3)c2cc1NC(=O)/C=C/CN(C)C [NERATINIB]

>  <tested.on>
Fibroblast

>  <Total Cell Count>
129

$$$$
>  <molecule>
CCCS(=O)(=O)Nc1ccc(F)c(C(=O)c2c[nH]c3ncc(Cl)cc23)c1F [PLX-4720]

>  <tested.on>
Fibroblast

>  <Total Cell Count>
249

$$$$
>  <molecule>
Cn1nc(C(F)(F)F)cc1-c1cnc(N2CCc3cc(S(=O)(=O)Nc4c(F)cc(Cl)cc4F)cc(N4CCCC4=O)c32)nc1 [TP-020]

>  <tested.on>
Fibroblast

>  <Total Cell Count>
246

$$$$

Input: Report Total Cell Count for COc1ccc(-c2ccc3c(N4CCOCC4)nc(N4C[C@@H](C)O[C@@H](C)C4)nc3n2)cc1CO [Ku-0063794] please.
Output: 290

Input: GET /values?readout=Total Cell Count&item= "O=C1N/C(=N/c2ccccc2F)S/C1=C\c1ccc(C(=O)O)cc1"
Output: 89

Input: Data request, read-out Total Cell Count, for "COC(=N)c1nc2ccc3ncnc(Nc4ccc(OC)cc4F)c3c2s1"
Output: 146

Input: Would you kindly share the measured Total Cell Count for "O=C(Nc1cccnn1)N1CCC(=Cc2cccc(Oc3ccc(C(F)(F)F)cn3)c2)CC1" ?
Output: 238

Input: Consider the molecule Cc1cn(-c2cc(NC(=O)c3ccc(C)c(Nc4nccc(-c5cccnc5)n4)c3)cc(C(F)(F)F)c2)cn1 [NILOTINIB] and give its measured Total Cell Count.
Output: 159

Input: Need Total Cell Count of "O=C(Nc1ccc(-c2ccnc(Nc3ccc(N4CCOCC4)cc3)n2)cc1)[C@@H]1CCCN1" , thanks.
Output: 100

Input: Given the entry "S=C(NCCCc1c[nH]cn1)NCCCN(Cc1ccc(Cl)c(Cl)c1)c1ccc(Br)cn1" , report its measured Total Cell Count.
Output: 154
